tested on: wild-type P. aeruginosa PA14; assay: microbe, parasite or virus in culture; format: cell-based; details: WT P. aeruginosa PA14, 17 hr growth, titration; read-out: IC50 for inhibition of pyocyanin production
pIC50: −log10 of the molar value.
measuredMetric: pIC50

{"columns": ["compound", "measuredMetric", "observedMeasurement"],
 "data": [
  ["O=C(CCCOc1cccc(Br)c1)N[C@@H]1CCSC1=O [(R)-mBTL]", "pIC50", 4.00],
  ["O=C(CCCCCCCCCCN=C=S)CC(=O)NC1CCOC1=O (stereo not shown) [itc-13, reference compound]", "pIC50", 4.25],
  ["O=C(CCCOc1cccc(Cl)c1)NC1CCSC1=O (stereo not shown)", "pIC50", 5.05],
  ["O=C(CCCOc1cccc(Br)c1)N[C@H]1CCSC1=O [(S)-mBTL]", "pIC50", 5.40]
]}

----------
tested on: wild-type P. aeruginosa PA14; test: microbe, parasite or virus in culture; assay type: cell-based; conditions: Pseudomonas aeruginosa, PA14, 17 h, read-out: Efficacy (%), Table 2; reduction of pyocyanin vs WT P. aeruginosa PA14: 0% = WT level, 100% = background medium, negative = agonist
measuredMetric: inhibition at 100 µM

{"columns": ["compound", "measuredMetric", "observedMeasurement"],
 "data": [
  ["CCCCCCCCCCCC(=O)Nc1c(F)c(F)nc(F)c1F", "inhibition at 100 µM", "-12%"],
  ["CCCCCCCCCCCC(=O)NCc1ccncc1", "inhibition at 100 µM", "7.7%"],
  ["CCCCCCCCCCCC(=O)Nc1ccc2oc3c(c2c1)CCCC3 [S35, C12-2-amino-tetrahydrodibenzofuran]", "inhibition at 100 µM", "6.1%"],
  ["CCCCCCCCCCCCNC(=O)c1ccncc1 [S21, C12-isonicotinic amide]", "inhibition at 100 µM", "13%"]
]}
